Tested on: Saccharomyces cerevisiae BY4741 SeMeCo community
test: z-score of subpopulation abundance vs DMSO median, subpopulation auxotrophic for M; higher = larger share of this subpopulation than in DMSO controls
particulars: 10 µM; 24 h; SM minimal medium; subpopulation (auxotrophy): M
Where a name gives a salt, the structure may show the parent alone.
Provide the reported z-score of subpopulation abundance of each item.
Give bare numbers.

Consider the reported z-score of subpopulation abundance for these compounds:
| compound | system_tested | readout_name | result_number |
| --- | --- | --- | --- |
| Cc1c(C)c2c(c(C)c1O)CCC(C)(CCCC(C)CCCC(C)CCCC(C)C)O2 (centres undefined) [Vitamin E] | Saccharomyces cerevisiae BY4741 SeMeCo community | z-score of subpopulation abundance | -0.6 |
| CCOC(=O)C1=C(COCCN)NC(C)=C(C(=O)OC)[C@@H]1c1ccccc1Cl [Levamlodipine] | Saccharomyces cerevisiae BY4741 SeMeCo community | z-score of subpopulation abundance | 5.72 |
| Cc1cc(NS(=O)(=O)c2ccc(N)cc2)no1 [Sulfamethoxazole] | Saccharomyces cerevisiae BY4741 SeMeCo community | z-score of subpopulation abundance | 0.51 |
| COc1ccc2c(c1)c(CC(=O)OCC(=O)O)c(C)n2C(=O)c1ccc(Cl)cc1 [Acemetacin] | Saccharomyces cerevisiae BY4741 SeMeCo community | z-score of subpopulation abundance | 0.01 |
| CN(C/C=C/C#CC(C)(C)C)Cc1cccc2ccccc12 [Terbinafine HCl] | Saccharomyces cerevisiae BY4741 SeMeCo community | z-score of subpopulation abundance | 1.09 |
| O=C(O[C@H]1CN2CCC1CC2)N1CCc2ccccc2[C@@H]1c1ccccc1 [Solifenacin succinate] | Saccharomyces cerevisiae BY4741 SeMeCo community | z-score of subpopulation abundance | 0.77 |
| C[C@H](NCc1ccc(OCc2cccc(F)c2)cc1)C(N)=O [Safinamide Mesylate] | Saccharomyces cerevisiae BY4741 SeMeCo community | z-score of subpopulation abundance | 0.58 |
| O=C1[C@H]2CCCC[C@H]2C(=O)N1CCCCN1CCN(c2nsc3ccccc23)CC1 [Perospirone hydrochloride] | Saccharomyces cerevisiae BY4741 SeMeCo community | z-score of subpopulation abundance | -0.63 |

With those in mind, consider the next compound.
stdin: Fill in z-score of subpopulation abundance for record Cn1c(=O)c2[nH]cnc2n(C)c1=O [Aminophylline]
stdout: 0.43

* * *

Provide the reported z-score of subpopulation abundance of each item.
Tested on: Saccharomyces cerevisiae BY4741 SeMeCo community
test: z-score of subpopulation abundance vs DMSO median, subpopulation auxotrophic for HM; higher = larger share of this subpopulation than in DMSO controls
particulars: 10 µM; 24 h; SM minimal medium; subpopulation (auxotrophy): HM
Counter-ions that a name gives are not always drawn.
Numbers only.

| compound | system_tested | z-score of subpopulation abundance |
| --- | --- | --- |
| CC/C(=C(\c1ccccc1)c1ccc(OCCN(C)C)cc1)c1ccccc1 [Tamoxifen Citrate] | Saccharomyces cerevisiae BY4741 SeMeCo community | 0.16 |
| c1ccc2[nH]c(-c3cscn3)nc2c1 [Thiabendazole] | Saccharomyces cerevisiae BY4741 SeMeCo community | -0.37 |
| Cc1nc(=O)c2cc(CN(C)c3ccc(C(=O)N[C@@H](CCC(=O)O)C(=O)O)s3)ccc2[nH]1 [Raltitrexed] | Saccharomyces cerevisiae BY4741 SeMeCo community | -0.66 |
| CCN(CC)CCOC(=O)c1ccc(N)cc1Cl [Chloroprocaine HCl] | Saccharomyces cerevisiae BY4741 SeMeCo community | -0.02 |
| NC(CO)(CO)CO [Trometamol] | Saccharomyces cerevisiae BY4741 SeMeCo community | -0.48 |

Below is a list of compounds. For each, state its recorded z-score of subpopulation abundance.
1. N[C@@H]1CCCCN(c2c(F)cc3c(=O)c(C(=O)O)cn(C4CC4)c3c2Cl)C1 [Besifloxacin HCl]
2. O=C1NCC2(CCN(CCc3ccccc3)CC2)O1 [Fenspiride HCl]
3. C=C[C@H]1CN2CC[C@H]1C[C@@H]2[C@@H](O)c1ccnc2ccc(OC)cc12 [Quinidine sulfate]
4. O=C(O)Cc1ccccc1Nc1c(Cl)cccc1Cl [Diclofenac Diethylamine]
5. CC(=O)N[C@H]1[C@H]([C@H](O)[C@H](O)CO)OC(C(=O)O)=C[C@@H]1NC(=N)N [Zanamivir]
6. COc1cc2c(cc1OC)[C@@H]1Cc3ccc(OC)c(OC)c3CN1CC2 [Rotundine]
7. Cc1c(-c2ccc(O)cc2)n(Cc2ccc(OCCN3CCCCCC3)cc2)c2ccc(O)cc12 [Bazedoxifene Acetate]
8. NCC[C@H](O)C(=O)N[C@@H]1C[C@H](N)[C@@H](O[C@H]2O[C@H](CN)[C@@H](O)[C@H](O)[C@H]2O)[C@H](O)[C@H]1O[C@H]1O[C@H](CO)[C@@H](O)[C@H](N)[C@H]1O [Amikacin disulfate]

stdout:
-0.14
-0.15
1.23
-0.49
0.87
-0.02
0.8
-1.21

Below is a list of compounds. For each, state its recorded z-score of subpopulation abundance.
1. CCCCOc1ccc(C(=O)CCN2CCCCC2)cc1 [Dyclonine HCl]
2. Cc1c(OCC(F)(F)F)ccnc1C[S+]([O-])c1nc2ccccc2[nH]1 (configuration not stated) [Lansoprazole]
3. CC(=O)C1C(=O)C=C(C)OC1=O (configuration not stated) [Sodium dehydroacetate]
4. C[C@@H]1CC(=O)NN=C1c1ccc(NN=C(C#N)C#N)cc1 [Levosimendan]

stdout:
-0.09
-0.45
0.2
0.22

* * *

Test system: Saccharomyces cerevisiae BY4741 SeMeCo community
test: z-score of subpopulation abundance vs DMSO median, subpopulation auxotrophic for LUM; higher = larger share of this subpopulation than in DMSO controls
particulars: 10 µM; 24 h; SM minimal medium; subpopulation (auxotrophy): LUM
Structures can show the parent of a compound that is named as a salt.
readout_name: z-score of subpopulation abundance

Consider the reported z-score of subpopulation abundance for these compounds:
| compound | system_tested | z-score of subpopulation abundance |
| --- | --- | --- |
| CCc1c2c(nc3ccc(OC(=O)N4CCC(N5CCCCC5)CC4)cc13)-c1cc3c(c(=O)n1C2)COC(=O)[C@]3(O)CC [Irinotecan HCl Trihydrate] | Saccharomyces cerevisiae BY4741 SeMeCo community | 0.14 |
| CN(C)CCc1c[nH]c2ccc(CS(=O)(=O)N3CCCC3)cc12 [Almotriptan Malate] | Saccharomyces cerevisiae BY4741 SeMeCo community | -0.23 |
| O=C1NCC2(CCN(CCc3ccccc3)CC2)O1 [Fenspiride HCl] | Saccharomyces cerevisiae BY4741 SeMeCo community | -0.59 |
| CN1C(C(=O)Nc2ccccn2)=C(O)c2sc(Cl)cc2S1(=O)=O [Lornoxicam] | Saccharomyces cerevisiae BY4741 SeMeCo community | 0.46 |

Below is a list of compounds. For each, state its recorded z-score of subpopulation abundance.
1. CN1CCN(c2cc3c(cc2F)c(=O)c(C(=O)O)cn3-c2ccc(F)cc2)CC1 [Difloxacin hydrochloride]
2. Cc1cc(C)nc(NS(=O)(=O)c2ccc(N)cc2)n1 [Sulfamethazine]
3. CC(=O)[C@H]1CC[C@H]2[C@@H]3CC=C4C[C@@H](O)CC[C@]4(C)[C@H]3CC[C@]12C [Pregnenolone]
4. CC(=O)OCC[N+](C)(C)C [Acetylcholine iodide]
5. COc1ccc([C@@H]2Sc3ccccc3N(CCN(C)C)C(=O)[C@@H]2OC(C)=O)cc1 [Diltiazem HCl]

stdout:
1: -0.26; 2: -0.16; 3: -0.02; 4: -1.27; 5: -0.24

* * *

System: Saccharomyces cerevisiae BY4741 SeMeCo community
test: z-score of subpopulation abundance vs DMSO median, subpopulation auxotrophic for LM; higher = larger share of this subpopulation than in DMSO controls
particulars: 10 µM; 24 h; SM minimal medium; subpopulation (auxotrophy): LM
Provide the reported z-score of subpopulation abundance of each item.
Give bare numbers.

Consider the reported z-score of subpopulation abundance for these molecules:
| molecule | z-score of subpopulation abundance |
| --- | --- |
| CCOC(=O)c1ccc(O)cc1 [Ethylparaben] | -0.67 |
| O=C(O[C@H]1CN2CCC1CC2)N1CCc2ccccc2[C@@H]1c1ccccc1 [Solifenacin succinate] | 0.27 |
| Nc1ccc2cc3ccc(N)cc3nc2c1 [Proflavine Hemisulfate] | -5.03 |
| Cc1cc(-n2c(=O)[nH]c(=O)n(C)c2=O)ccc1Oc1ccc(SC(F)(F)F)cc1 [Toltrazuril] | -0.18 |
| OCc1ccc(Cl)cc1Cl [2,4-dichlorobenzyl alcohol] | 0.21 |

stdin: Fill in z-score of subpopulation abundance for record Cc1cccc(C#Cc2ccccc2)n1
stdout: -0.31

* * *

Tested on: Saccharomyces cerevisiae BY4741 SeMeCo community
test: mean cell size (pixel area) (pixels); higher = larger cells
particulars: 10 µM; 24 h; SM minimal medium
Where a name gives a salt, the structure may show the parent alone.
Provide the reported mean cell size of each item.
Answers are plain numbers.

Consider the reported mean cell size for these compounds:
| compound | mean cell size |
| --- | --- |
| CCN(CC)CCOc1ccc2c(c1)C(=O)c1cc(OCCN(CC)CC)ccc1-2 [Tilorone dihydrochloride] | 12.3 |
| CCOC(=O)c1c(CSc2ccccc2)n(C)c2cc(Br)c(O)c(CN(C)C)c12 [Arbidol HCl] | 12.6 |

Below is a list of compounds. For each, state its recorded mean cell size.
1. CC1(C)S[C@@H]2[C@H](NC(=O)[C@H](NC(=O)N3CCNC3=O)c3ccccc3)C(=O)N2[C@H]1C(=O)O [Azlocillin sodium salt]
2. COc1ccc([C@H]2CNC(=O)C2)cc1OC1CCCC1 [S- (+)-Rolipram]

stdout:
12.4
12.4

Below is a list of compounds. For each, state its recorded mean cell size.
1. CC[C@H](C)C(=O)O[C@H]1C[C@H](O)C=C2C=C[C@H](C)[C@H](CC[C@@H](O)C[C@@H](O)CC(=O)O)[C@H]21
2. C[C@@H]1CN(c2c(F)c(N)c3c(=O)c(C(=O)O)cn(C4CC4)c3c2F)C[C@H](C)N1
3. N[C@@H](C(=O)N[C@@H]1C(=O)N2C(C(=O)O)=C(Cl)CS[C@H]12)c1ccccc1

stdout:
1. 12.2
2. 12.4
3. 12.5
